system: cypris larvae of the barnacle Amphibalanus amphitrite; assay: Antifouling (settlement inhibition) assay against barnacle cypris larvae; format: in vivo; conditions: Amphibalanus amphitrite; cypris larvae, 24‐well plates, 25°C, dark, 96 h; concentration reducing larval settlement to 50% of negative control
Quick reference: EC50 of the listed items.

> print(dat)
         compound  value.reported
1  NCCCCNCCCNCCCN       > 50 mg/L

Which measured EC50 belongs to NCCCNCCCCNCCCN , tested on cypris larvae of the barnacle Amphibalanus amphitrite?
> 50 mg/L

Quick one: CCCNCCCCNC(=O)OC(C)(C)C
6.11 mg/L

Quick one: NCCCCNCCCN
> 50 mg/L

Quick one: CCC(CC)NCCCCN
> 50 mg/L

Quick one: NCCCCN [Compound 7, putrescine, reference compound]
> 50 mg/L

Quick one: NCCCCNC1CCCCC1
> 50 mg/L

Quick one: NCCCCNC1CCCCCC1
> 50 mg/L

Quick one: NCCCCNC1CCCC1
> 50 mg/L

Quick one: CCCNCCCCN
4.25 mg/L
